Cited source: patent US7754701B2

Tested on: Streptococcus mutans MT 8148
measurement protocol: Acid production by Streptococcus mutans (Example 9), strain MT 8148
Assay type: cell-based
condition context: 10 ml of 5% solution added to 2 ml cell suspension, 37° C., FIG. 6
quantity kind: acid production (change with time in pH of reaction mixture)

OC[C@H]1O[C@H](OC[C@H]2OC(O)(CO)[C@@H](O)[C@@H]2O)[C@H](O)[C@@H](O)[C@@H]1O (some centres unmarked) [palatinose, reference compound] : almost no acid
OC[C@H]1O[C@@]2(CO[C@]3(CO)O[C@H](CO)[C@@H](O)[C@@H]3O2)[C@@H](O)[C@@H]1O [DFA III, difructose anhydride III] : almost no acid
OC[C@@H](O)[C@H](O)[C@@H](O)CO [xylitol] : almost no acid
OC[C@@H](O)[C@@H](O)[C@H](O)[C@@H](O)CO [sorbitol] : almost no acid
